test: Absorption and fluorescence spectroscopy; type: physicochemical; conditions: 10 μM in H2O
assay-endpoint: absorbance intensity after 30 min relative to that measured at 1 min

[
  {
    "test-smiles": "C[N+](C)(C)CCOc1ccc(C#Cc2ccc(C#Cc3ccc(OCC[N+](C)(C)C)cc3)cc2)cc1.[I-].[I-]",
    "result": "the same"
  },
  {
    "test-smiles": "O=S(=O)([O-])CCCOc1ccc(C#Cc2ccc(C#Cc3ccc(OCCCS(=O)(=O)[O-])cc3)cc2)cc1.[Na+].[Na+]",
    "result": "1.5 times"
  },
  {
    "test-smiles": "C[N+](C)(C)CCCOc1ccc(C#Cc2ccc(C#Cc3ccc(OCCC[N+](C)(C)C)cc3)s2)cc1.[I-].[I-]",
    "result": "the same"
  }
]
